System: 699152-130-R-J1-PDC complex spheroid growth
measurement_notes: Anticancer human tumor 699152-130-R-J1-PDC patient-derived pancreatic carcinoma cell line growth inhibition [AhR]
test_conditions: curve of first compound; second compound 3.16 µM
quantity: pIC50
One number for each entry, as −log10 of the molar value.

Previously resolved entries follow.
CC1COCCN1c1cc(-c2ccnn2C)c2ccnc(-c3ccn[nH]3)c2n1 (stereo unspecified) + Cc1cncc(-c2nc(NCCc3c[nH]c4ccccc34)c3ncn(C(C)C)c3n2)c1
6.31
CC(C)CC(NC(=O)C(Cc1ccccc1)NC(=O)c1cnccn1)B(O)O (stereo unspecified) + CC(CO)NC(=O)c1cc(-c2ccc(Cl)cc2)nn(-c2cnn(C)c2)c1=O
8.26

Continue with the next compound.
Notebook entry, 699152-130-R-J1-PDC complex spheroid growth assay: pIC50 of COc1cc(C2c3cc4c(cc3C(OC3OC5COC(C)OC5C(O)C3O)C3COC(=O)C23)OCO4)cc(OC)c1O (stereo unspecified) + CC(CO)NC(=O)c1cc(-c2ccc(Cl)cc2)nn(-c2cnn(C)c2)c1=O = ?
5.18

----------
Test system: 699152-130-R-J1-PDC complex spheroid growth
measurement_notes: Anticancer human tumor 699152-130-R-J1-PDC cell line growth inhibition [AhR];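 further: compound exposure lasted 7 days after spheroids had grown for 3 days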
test_conditions: second compound 0.316 µM; first compound 0.1 µM; stronger effect = lower value
# true (1) = viability, T/C below 90% (exclusive); false (0) = viability, T/C at/above 90%

Solved entries (count: 8):
CC[C@@]1(O)C(=O)OCc2c1cc1n(c2=O)Cc2cc3c(CN(C)C)c(O)ccc3nc2-1 + Cc1cncc(-c2nc(NCCc3c[nH]c4ccccc34)c3ncn(C(C)C)c3n2)c1
true (1)
COc1ccc([C@@H](O)c2cc(-c3ncnc4cc(N5CCOCC5)ccc34)c(F)cc2Cl)nn1 + Cc1cncc(-c2nc(NCCc3c[nH]c4ccccc34)c3ncn(C(C)C)c3n2)c1
false (0)
O=C(C=Cc1cccc(S(=O)(=O)Nc2ccccc2)c1)NO + Cc1cncc(-c2nc(NCCc3c[nH]c4ccccc34)c3ncn(C(C)C)c3n2)c1
false (0)
COc1cc(Nc2ncc3c(n2)-c2ccc(Cl)cc2C(c2c(F)cccc2OC)=NC3)ccc1C(=O)O + CC(CO)NC(=O)c1cc(-c2ccc(Cl)cc2)nn(-c2cnn(C)c2)c1=O
false (0)
COc1cccc2c1C(=O)c1c(O)c3c(c(O)c1C2=O)CC(O)(C(=O)CO)CC3OC1CC(N)C(O)C(C)O1 (configuration not stated) + CC(CO)NC(=O)c1cc(-c2ccc(Cl)cc2)nn(-c2cnn(C)c2)c1=O
true (1)
Nc1ncn(C2CC(O)C(CO)O2)c(=O)n1 (configuration not stated) + Cc1cncc(-c2nc(NCCc3c[nH]c4ccccc34)c3ncn(C(C)C)c3n2)c1
true (1)
Nc1ccn(C2OC(CO)C(O)C2(F)F)c(=O)n1 (configuration not stated) + Cc1cncc(-c2nc(NCCc3c[nH]c4ccccc34)c3ncn(C(C)C)c3n2)c1
true (1)
Cn1ncnc1C1c2n[nH]c(=O)c3cc(F)cc(c23)NC1c1ccc(F)cc1 (configuration not stated) + CC(CO)NC(=O)c1cc(-c2ccc(Cl)cc2)nn(-c2cnn(C)c2)c1=O
false (0)

Let's switch to this compound now.
Threshold test, viability, T/C < 90%: Nc1ccccc1NC(=O)c1ccc(CNC(=O)OCc2cccnc2)cc1 + Cc1ccccc1N=Nc1ccc(NC(=O)c2ccnn2C)c(C)c1
false (0)

----------
Tested on: 699152-130-R-J1-PDC complex spheroid growth
measurement_notes: Anticancer human tumor 699152-130-R-J1-PDC cell line growth inhibition [AhR];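 further: compound exposure lasted 7 days after spheroids had grown for 3 days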
test_conditions: second compound 3.16 µM; first compound 0.001 µM; stronger effect = lower value
From the text: Multicellular complex tumor spheroid response to aryl hydrocarbon receptor antagonists in combination with a variety of drugs and investigational agents in selected tumor cell lines […] Compounds. […] If the clinical Cmax for an agent had not been determined, the highest concentration tested was 10 microM (Table 1). […]
Give viability, T/C for every item shown.
One number for each entry, in %.

CC[C@@]1(O)C(=O)OCc2c1cc1n(c2=O)Cc2cc3c(CN(C)C)c(O)ccc3nc2-1 + Cc1cncc(-c2nc(NCCc3c[nH]c4ccccc34)c3ncn(C(C)C)c3n2)c1
92.8
Cn1ncnc1C1c2n[nH]c(=O)c3cc(F)cc(c23)NC1c1ccc(F)cc1 (stereo unspecified) + CC(CO)NC(=O)c1cc(-c2ccc(Cl)cc2)nn(-c2cnn(C)c2)c1=O
95.3
Cn1ncnc1C1c2n[nH]c(=O)c3cc(F)cc(c23)NC1c1ccc(F)cc1 (stereo unspecified) + Cc1cncc(-c2nc(NCCc3c[nH]c4ccccc34)c3ncn(C(C)C)c3n2)c1
114
CC[C@@]1(O)C(=O)OCc2c1cc1n(c2=O)Cc2cc3c(CN(C)C)c(O)ccc3nc2-1 + Cc1ccccc1N=Nc1ccc(NC(=O)c2ccnn2C)c(C)c1
105

Provide reported viability, T/C for each item, in the same order as listed.
1. Cn1ncnc1C1c2n[nH]c(=O)c3cc(F)cc(c23)NC1c1ccc(F)cc1 (stereo unspecified) + Cc1ccccc1N=Nc1ccc(NC(=O)c2ccnn2C)c(C)c1
2. CC[C@@]1(O)C(=O)OCc2c1cc1n(c2=O)Cc2cc3c(CN(C)C)c(O)ccc3nc2-1 + CC(CO)NC(=O)c1cc(-c2ccc(Cl)cc2)nn(-c2cnn(C)c2)c1=O

[117, 102]

----------
Tested on: 699152-130-R-J1-PDC complex spheroid growth
measurement_notes: Anticancer human tumor 699152-130-R-J1-PDC cell line growth inhibition [AhR];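 further: compound exposure lasted 7 days after spheroids had grown for 3 days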
test_conditions: second compound 0.316 µM; first compound 0.1 µM; stronger effect = lower value
Description: Multicellular complex tumor spheroid response to aryl hydrocarbon receptor antagonists in combination with a variety of drugs and investigational agents in selected tumor cell lines […] Compounds. […] If the clinical Cmax for an agent had not been determined, the highest concentration tested was 10 microM (Table 1). […]
Give viability, T/C for every item shown.

Previously resolved entries follow.
Cn1ncnc1C1c2n[nH]c(=O)c3cc(F)cc(c23)NC1c1ccc(F)cc1 (stereo not drawn) + Cc1cncc(-c2nc(NCCc3c[nH]c4ccccc34)c3ncn(C(C)C)c3n2)c1
104%
CC(C)c1c(-c2ccccc2)nc2c(C#N)c[nH]n2c1=O + Cc1cncc(-c2nc(NCCc3c[nH]c4ccccc34)c3ncn(C(C)C)c3n2)c1
109%

Continue with the next compound.
May I ask what viability, T/C has been recorded for CC(C)c1c(-c2ccccc2)nc2c(C#N)c[nH]n2c1=O + CC(CO)NC(=O)c1cc(-c2ccc(Cl)cc2)nn(-c2cnn(C)c2)c1=O ?
98.7%

----------
Give viability, T/C for every item shown.
Test system: 699152-130-R-J1-PDC complex spheroid growth
measurement_notes: Anticancer human tumor 699152-130-R-J1-PDC cell line growth inhibition [AhR];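 further: compound exposure lasted 7 days after spheroids had grown for 3 days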
test_conditions: second compound 3.16 µM; first compound 0.316 µM; stronger effect = lower value
Give bare numbers, in %.

COc1cc(Nc2ncc3c(n2)-c2ccc(Cl)cc2C(c2c(F)cccc2OC)=NC3)ccc1C(=O)O + CC(CO)NC(=O)c1cc(-c2ccc(Cl)cc2)nn(-c2cnn(C)c2)c1=O
85.3
NS(=O)(=O)OCC1CC(n2ccc3c(NC4CCc5ccccc54)ncnc32)CC1O (configuration not stated) + Cc1ccccc1N=Nc1ccc(NC(=O)c2ccnn2C)c(C)c1
96.7
O=C(C=Cc1cccc(S(=O)(=O)Nc2ccccc2)c1)NO + CC(CO)NC(=O)c1cc(-c2ccc(Cl)cc2)nn(-c2cnn(C)c2)c1=O
93.9
O=C(c1cc(Cc2n[nH]c(=O)c3ccccc23)ccc1F)N1CCN(C(=O)C2CC2)CC1 + Cc1cncc(-c2nc(NCCc3c[nH]c4ccccc34)c3ncn(C(C)C)c3n2)c1
89.7
CC1COCCN1c1cc(-c2ccnn2C)c2ccnc(-c3ccn[nH]3)c2n1 (configuration not stated) + Cc1ccccc1N=Nc1ccc(NC(=O)c2ccnn2C)c(C)c1
72.1

Provide reported viability, T/C for each item, in the same order as listed.
1. NS(=O)(=O)OCC1CC(n2ccc3c(NC4CCc5ccccc54)ncnc32)CC1O (configuration not stated) + CC(CO)NC(=O)c1cc(-c2ccc(Cl)cc2)nn(-c2cnn(C)c2)c1=O
2. CC1COCCN1c1cc(C2(S(C)(=N)=O)CC2)nc(-c2ccnc3[nH]ccc23)n1 (configuration not stated) + CC(CO)NC(=O)c1cc(-c2ccc(Cl)cc2)nn(-c2cnn(C)c2)c1=O

1. 80.2
2. 88.5

----------
System: 699152-130-R-J1-PDC complex spheroid growth
measurement_notes: Anticancer human tumor 699152-130-R-J1-PDC cell line growth inhibition [AhR];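 further: compound exposure lasted 7 days after spheroids had grown for 3 days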
test_conditions: curve of first compound; second compound 0.1 µM
Give IC50 for every item shown.

COc1ccc([C@@H](O)c2cc(-c3ncnc4cc(N5CCOCC5)ccc34)c(F)cc2Cl)nn1 + CC(CO)NC(=O)c1cc(-c2ccc(Cl)cc2)nn(-c2cnn(C)c2)c1=O
3.77 µM
CC[C@@]1(O)C(=O)OCc2c1cc1n(c2=O)Cc2cc3c(CN(C)C)c(O)ccc3nc2-1 + CC(CO)NC(=O)c1cc(-c2ccc(Cl)cc2)nn(-c2cnn(C)c2)c1=O
> 0.1 µM
CC1COCCN1c1cc(C2(S(C)(=N)=O)CC2)nc(-c2ccnc3[nH]ccc23)n1 (stereo unspecified) + Cc1cncc(-c2nc(NCCc3c[nH]c4ccccc34)c3ncn(C(C)C)c3n2)c1
> 10 µM

Provide reported IC50 for each item, in the same order as listed.
1. CCc1c2c(nc3ccc(O)cc13)-c1cc3c(c(=O)n1C2)COC(=O)[C@]3(O)CC + Cc1ccccc1N=Nc1ccc(NC(=O)c2ccnn2C)c(C)c1
2. CC(C)c1c(-c2ccccc2)nc2c(C#N)c[nH]n2c1=O + Cc1ccccc1N=Nc1ccc(NC(=O)c2ccnn2C)c(C)c1
3. Nc1ncn(C2CC(O)C(CO)O2)c(=O)n1 (stereo unspecified) + Cc1cncc(-c2nc(NCCc3c[nH]c4ccccc34)c3ncn(C(C)C)c3n2)c1

["0.0128 µM", "> 10 µM", "> 1 µM"]

Where do these numbers come from? They come from PubChem BioAssay AID1919001.
